B1: KRT71 (parent)
chain: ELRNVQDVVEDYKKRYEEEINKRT

# Variants of: B1
# Method description: protein stability index of a GFP-peptide fusion (GPS, HEK-293T) (PSI 1-6); higher = more stable;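 also: lentivirally expressed fusions sorted by FACS into six bins by GFP to DsRed ratio, PSI derived from sequencing read proportions per bin multiplied by bin number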
# Condition details: c terminus: a fixed tail appended
Assay metric: protein stability index

> print(dat)
               sequence.text  reported.value
 1  ELRNVQDVVEDYKKRYEEEINKCT            3.84
 2  ELRNVQDVIEDYKKRYEEEINKRT            3.74
 3  ELRNVMDVVEDYKKRYEEEINKRT            3.14
 4  ELRYVQDVVEDYKKRYEEEINKRT            3.59
 5  ELRNVQDVVEDYKKRPEEEINKRT            3.82
 6  ELRNVQDVVEDYKKRYEEEINERT            3.43
 7  ELRNVQDVVENYKKRYEEEINKRT            3.63
 8  ELRNVQDVVEDYKKRKEEEINKRT            3.75
 9  ELRNVQDVVEDYNKRYEEEINKRT            3.34
10  ELRNVQDVFEDYKKRYEEEINKRT            3.49
11  ELRNVQDVVEDYKKDYEEEINKRT            3.35
12  ELRNVQDVVEDYKKRYEEERNKRT            3.22
13  ELRNVQDVSEDYKKRYEEEINKRT            4.35
14  ELRNVQDVVEDYWKRYEEEINKRT            3.34
15  ELRNHQDVVEDYKKRYEEEINKRT            4.37
16  ELRNVQDVVEDYKCRYEEEINKRT             3.3
17  ELRNVQDVVEDYKKRYEEEINCRT            4.19
18  ELRNVQDEVEDYKKRYEEEINKRT            3.98
19  ELRNVQDVVEDYKKRYEEEINKKT             4.2
20  ELRNVQDPVEDYKKRYEEEINKRT            3.67
21  ELRAVQDVVEDYKKRYEEEINKRT            4.38
22  ELRNVQDVVEDYKARYEEEINKRT            3.17
